# assay: qHTS assay to identify small molecule antagonists of the constitutive androstane receptor (CAR) signaling pathway - cell viability counter screen (AID 1224837); further: on the % scale 0 is the no-effect control and ±100 the full control effect; nearly all actives have a fitted effect of over 45% in size
# assay-context: HepG2-CYP2B6-hCAR viability, CellTiter-Fluor, 23 h, co-treated with 50 nM CITCO; series mostly up to 92.4 µM
Results filed as inconclusive are left out. The source made the active and inactive calls. The call rests on the fitted dose curve; in most records, active means well fitted cell-killing curve with a large enough effect in the repeat runs; inconclusive means weak or mixed curves, or effect the other way; inactive means flat fitted curve, though single readings scatter.
Can you answer with just one of these options? active, inactive

>>> df
             molecule  answer_label
0  O=C(O)CC(=O)C(=O)O      inactive

**Q:** Look up the recorded call for `CN(C)c1ccc(C(c2ccccc2)c2ccc(N(C)C)cc2)cc1` in this test.
**A:** inactive

**Q:** Please state the recorded outcome for this molecule: `COC(=O)c1ccc(I)cc1S(=O)(=O)NC(=O)Nc1nc(C)nc(OC)n1`
**A:** inactive

**Q:** Record lookup: outcome of this test for `Nc1cccc([N+](=O)[O-])c1` ?
**A:** inactive

**Q:** Write down the call the test reported for this molecule. Item: `ClCCOCCOCCCl`
**A:** inactive

====

# System: estrogen-related receptor alpha (ERRalpha) with PGC-1alpha coactivator, human
# assay: qHTS assay to identify small molecule antagonists of the estrogen related receptor signaling pathway with the pleiotropic PPARgamma coactivator (PGC) (AID 1224821); further: nearly all actives have a fitted effect of over 50% in size
# assay-context: ERR/PGC reporter cell line, luciferase, antagonist mode; series mostly up to 46.1 µM
Inconclusive results are not listed. Activity calls are given as the source filed them. Calls come from the whole dose curve.
One label from this list, please: active, inactive

In [3]: df
Out[3]:
                                compound  answer_label
0  CCCn1cnc2c1c(=O)n(CCCCC(C)=O)c(=O)n2C      inactive

**Q:** Hey, what did the test say about OCc1cc(C(O)CNCCCCCCOCCCCc2ccccc2)ccc1O (stereo not given) ?
**A:** inactive

**Q:** What was the test verdict on `CC(C)C[C@H]1C(=O)N2CCC[C@H]2[C@]2(O)O[C@](NC(=O)[C@@H]3C=C4c5cccc6[nH]c(Br)c(c56)C[C@H]4N(C)C3)(C(C)C)C(=O)N12` ?
**A:** active

**Q:** Could you check what this test reported for `NC(N)=NCCC[C@H](N)C(=O)O` ?
**A:** inactive

**Q:** How did this test come out for COc1cc2nc(N(C)CCCNC(=O)C3CCCO3)nc(N)c2cc1OC (stereo not given) ?
**A:** inactive

====

# assay: qHTS assay to identify small molecule antagonists of the sonic hedgehog signaling (Shh) pathway - cell viability counter screen (AID 1259367); further: nearly all actives have a fitted effect of over 55% in size
# assay-context: NIH/3T3 Gli1-Luc viability, CellTiter-Fluor, 24 h; series mostly up to 92.4 µM
Inconclusive results are not listed. Active and inactive are the calls of the source. Calls follow the shape of the dose curve; as a rule, active = well fitted cell-killing curve with a large enough effect in the repeat runs; inconclusive = weak or mixed curves, or effect the other way; inactive = no such curve, though single readings can be large or run the other way.
Respond with a class label; see active, inactive

Before answering, review these 3 worked examples.
In [3]: df
Out[3]:
                                   compound  answer_label
0  CCCNCC(O)COc1ccccc1C(=O)CCc1ccccc1 (stereo unspecified)      inactive
1  N=c1ccn2c(n1)O[C@H]1[C@H](O)[C@@H](CO)O[C@H]12      inactive
2                C#CCN(C)CCCOc1ccc(Cl)cc1Cl      inactive

**Q:** Field: outcome | Entry: `c1cc(CCCc2ccncc2)ccn1`
**A:** inactive

**Q:** Dear all, I need the recorded test outcome for `O=S(=O)(Oc1ccc(Cl)cc1)c1ccccc1` , thank you.
**A:** inactive

**Q:** # lookup: test call for `Cc1cccc(C)c1OCC(=O)N[C@@H](Cc1ccccc1)[C@@H](O)C[C@H](Cc1ccccc1)NC(=O)[C@H](C(C)C)N1CCCNC1=O`
**A:** active

====

// activity change, negative = cytotoxicity lookup, one value per entry
# assay: qHTS assay to identify small molecule agonists of the vitamin D receptor (VDR) signaling pathway - cell viability counter screen (AID 743224); further: on the % scale 0 is the no-effect control and ±100 the full control effect; nearly all actives have a fitted effect of over 50% in size
# assay-context: VDR-bla HEK293T viability, CellTiter-Glo luminescence, 16 h; series mostly up to 62.6 µM
Records with an inconclusive call do not appear. Active and inactive are the calls of the source. Calls follow the shape of the dose curve; as a rule, active = well fitted cell-killing curve with a large enough effect in the repeat runs; inconclusive = weak or mixed curves, or effect the other way; inactive = no such curve, though single readings can be large or run the other way.

In [3]: df
Out[3]:
                            smiles_notation                        attribute_measured                          result
0                Brc1c2ccccc2c(Br)c2ccccc12  activity change, negative = cytotoxicity   13.8% [at 5.95 µM] (inactive)
1                           O=C(O)CNCC(=O)O  activity change, negative = cytotoxicity  -6.84% [at 5.95 µM] (inactive)
2                             C/C=C/C(=O)CC  activity change, negative = cytotoxicity   7.61% [at 13.2 µM] (inactive)
3  C/C(=C(\CCOP(=O)(O)O)SC(=O)c1ccccc1)N(C=O)Cc1cnc(C)nc1N  activity change, negative = cytotoxicity  -3.71% [at 5.95 µM] (inactive)

The recorded activity change, negative = cytotoxicity for entry `NC(N)=NCCC[C@H](N)C(=O)O` equals -0.114% [at 5.95 µM] (inactive)

====

# assay: A CellTox Green Cytotoxicity Assay to monitor cytotoxicity in HEK293 cells - 32 hour (AID 1224881); further: nearly all actives have a fitted effect of over 40% in size
# assay-context: CellTox Green fluorescence; series mostly up to 76.8 µM
Records with an inconclusive call do not appear. Calls of active or inactive are those of the source. The call rests on the fitted dose curve; in most records, active means well fitted activation curve with a large enough effect in the repeat runs; inconclusive means weak or mixed curves; inactive means flat fitted curve, though single readings scatter.
Your answer must be one of the following: 1.0 (active), 0.0 (inactive)

                                   compound  answer_label
0  O=C(c1ccc(F)cc1)C1CCN(CCn2c(=S)[nH]c3ccccc3c2=O)CC1           0.0
1              CCCCCCCC/C=C\CCCCCCCC(=O)OCC           0.0
2                      C=CC(=O)OCCOc1ccccc1           0.0
3  CCOC(=O)C1=C[C@]2(CC)CCCN3CCc4c(n1c1ccccc41)[C@@H]32           0.0
4           CN(C)CCN(Cc1ccc(Cl)cc1)c1ccccn1           0.0
5                     CC(C)(CO)[N+](=O)[O-]           0.0
6  CCC(Cl)CCC(Cl)C(Cl)CC(Cl)C(Cl)C(Cl)CCl (stereo not drawn)           0.0
7    COc1cccc(N(C)C(=S)Oc2ccc3c(c2)CCCC3)n1           0.0
8             C[Si](C)(CCCN)O[Si](C)(C)CCCN           0.0
9  COc1ccc(C(=O)Nc2nc3ccccc3c(NCc3ccccc3)c2C#N)cc1           0.0

**Q:** Recorded test outcome, item `CCCCC1=NC2(CCCC2)C(=O)N1Cc1ccc(-c2ccccc2-c2nn[nH]n2)cc1`
**A:** 0.0

**Q:** Recorded call for CC1=CCCC(C)(C)C12CCC(C)O2 (stereo not drawn) ?
**A:** 0.0

**Q:** Write down the call the test reported for this compound. Item: `CC(C)Nc1ccc(NC(C)C)c2c1C(=O)c1ccccc1C2=O`
**A:** 1.0

**Q:** Field: outcome | Entry: `NCc1ccccc1Sc1ccccc1CO`
**A:** 0.0

**Q:** Fill in: this test's call for `COc1ccc(S(=O)(=O)N2C(=O)[C@@](c3ccccc3OC)(N3C[C@H](O)C[C@H]3C(=O)N(C)C)c3cc(Cl)ccc32)c(OC)c1` is ___
**A:** 0.0

**Q:** Test call for this compound, please: CCN(CC)CCOC(=O)C(c1ccccc1)C1CCCCC1 (stereo not drawn)
**A:** 1.0

**Q:** Lab log entry: `COc1ccc(C(=O)N2CCN(CC(=O)N3CCOCC3)CC2)cc1` — outcome as called in the assay?
**A:** 0.0

**Q:** Given O=C1OC(=O)C2C3C=CC(C3)C12 (stereo not drawn) , state the outcome it received in this test.
**A:** 0.0

====

# assay: qHTS assay for identifying genotoxic compounds that show differential cytotoxicity against isogenic chicken DT40 cell lines with known DNA damage response pathways - Rev3 mutant cell line (AID 743014); further: nearly all actives have a fitted effect of over 55% in size
# assay-context: chicken DT40 Rev3-/- viability, CellTiter-Glo, 40 h; series mostly up to 68.4 µM
Results filed as inconclusive are left out. Active and inactive are the calls of the source. The call rests on the fitted dose curve; in most records, active means well fitted cell-killing curve with a large enough effect in the repeat runs; inconclusive means weak or mixed curves, or effect the other way; inactive means no such curve, though single readings can be large or run the other way.
Can you answer with just one of these options? active, inactive

>>> print(df.to_string())
                                   compound  answer_label
0  CC(=O)c1ccc2c(c1)N(CCCN1CCC(CCO)CC1)c1ccccc1S2        active
1             CC(C)=CCC/C(C)=C/CC/C(C)=C/CO        active

**Q:** Test call, this compound: `CCN(CC)c1ccc2c(-c3ccccc3C(=O)O)c3ccc(=[N+](CC)CC)cc-3oc2c1`
**A:** active

**Q:** Assay result, entry CCCCC(CC)CN1C(=O)C2C3C=CC(C3)C2C1=O (stereo not given) — outcome?
**A:** active

**Q:** Please let me know the test result on file for O=CC1CC=CCC1 (stereo not given) .
**A:** inactive

**Q:** Just curious, what result did `c1ccc(CNCCNCc2ccccc2)cc1` get here?
**A:** inactive

**Q:** Per the assay record, what outcome was assigned to `C1CCCNCCC1` ?
**A:** inactive
